Data credit: paper PMC11112747

# tested_system: mutant E41T dimer (Nostoc ellipsosporum, UniProt P81180, E41T)
# Construct: His-tag
# Sequence (P81180 whole entry E41T): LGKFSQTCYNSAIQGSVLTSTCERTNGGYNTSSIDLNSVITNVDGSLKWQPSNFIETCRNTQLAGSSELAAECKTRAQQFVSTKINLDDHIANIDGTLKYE
# assay_text: Isothermal titration calorimetry, mutant E41T dimer with ManNAc in the cell, PBS pH 7.4, 298 K, calculated with N = 2.
# Type: binding
readout_kind: Kd (µM)
Value expressed in µM; do not type the unit.

Task: Look up Kd: CC(=O)N[C@@H]1C(O)O[C@H](CO)[C@@H](O)[C@@H]1O (stereo partly shown)
Output: 110

----------
# tested_system: CVN2 (CVN2L0) (Nostoc ellipsosporum, UniProt P81180)
# Construct: tandem-linked domain-swapped dimer of two CV-N, zero-linker length; His-tag
# assay_text: Isothermal titration calorimetry, CVN2 titrated into ManNAc in the cell, PBS pH 7.4, 298 K, one-set of sites model.
# Format: binding
# details: SEM, n = 3; read-out: affinity Kd
readout_kind: pKd
Reminder that pKd means the negative base-10 logarithm of the concentration expressed in mol/L.

Task: Look up pKd: CC(=O)N[C@@H]1C(O)O[C@H](CO)[C@@H](O)[C@@H]1O (stereo partly shown)
Output: 5.85
